Source listed as paper PMC12057336.

METHOD_SUMMARY: Tissue distribution after i.g. or i.v. linezolid in control, CCl4-induced and 5/6 Nx rats
Type: in vivo, rat
CONDITION_DESCRIPTION: rat, liver, oral, 63 mg/kg, i.g. 63 mg/kg linezolid; 1 h; control rats; read-out: Tissue/plasma concentration ratio, Liver
MEASUREMENT_KIND: Kp at 1 h

# Kp at 1 h lookup, item CC(=O)NC[C@H]1CN(c2ccc(N3CCOCC3)c(F)c2)C(=O)O1 [Linezolid]
0.78

----------
METHOD_SUMMARY: Tissue distribution after i.g. or i.v. linezolid in control, CCl4-induced and 5/6 Nx rats
Type: in vivo, rat
CONDITION_DESCRIPTION: rat, lung, iv, 25 mg/kg, i.v. 25 mg/kg linezolid; 1 h; CCl4-induced rats; read-out: Tissue/plasma concentration ratio, Lung
MEASUREMENT_KIND: Kp at 1 h
Answers are plain numbers.

# Kp at 1 h lookup, item CC(=O)NC[C@H]1CN(c2ccc(N3CCOCC3)c(F)c2)C(=O)O1 [Linezolid]
0.66

----------
METHOD_SUMMARY: Tissue distribution after i.g. or i.v. linezolid in control, CCl4-induced and 5/6 Nx rats
Assay type: in vivo, rat
CONDITION_DESCRIPTION: rat, small intestine, oral, 63 mg/kg, i.g. 63 mg/kg linezolid; 0.5 h; CCl4-induced rats; read-out: Tissue/plasma concentration ratio, Small intestine
MEASUREMENT_KIND: Kp at 0.5 h
Answers are plain numbers.

# Kp at 0.5 h lookup, item CC(=O)NC[C@H]1CN(c2ccc(N3CCOCC3)c(F)c2)C(=O)O1
0.93

----------
METHOD_SUMMARY: Tissue distribution after i.g. or i.v. linezolid in control, CCl4-induced and 5/6 Nx rats
Assay type: in vivo, rat
CONDITION_DESCRIPTION: rat, lung, iv, 25 mg/kg, i.v. 25 mg/kg linezolid; 1 h; control rats; read-out: Tissue/plasma concentration ratio, Lung
MEASUREMENT_KIND: Kp at 1 h

# Kp at 1 h lookup, item CC(=O)NC[C@H]1CN(c2ccc(N3CCOCC3)c(F)c2)C(=O)O1
0.25

----------
METHOD_SUMMARY: Tissue distribution after i.g. or i.v. linezolid in control, CCl4-induced and 5/6 Nx rats
Assay type: in vivo, rat
CONDITION_DESCRIPTION: rat, heart, iv, 25 mg/kg, i.v. 25 mg/kg linezolid; 0.5 h; CCl4-induced rats; read-out: Tissue/plasma concentration ratio, Heart
MEASUREMENT_KIND: Kp at 0.5 h
Answers are plain numbers.

# Kp at 0.5 h lookup, item CC(=O)NC[C@H]1CN(c2ccc(N3CCOCC3)c(F)c2)C(=O)O1
0.63

----------
METHOD_SUMMARY: Tissue distribution after i.g. or i.v. linezolid in control, CCl4-induced and 5/6 Nx rats
Assay type: in vivo, rat
CONDITION_DESCRIPTION: rat, small intestine, oral, 63 mg/kg, i.g. 63 mg/kg linezolid; 4 h; CCl4-induced rats; read-out: Tissue/plasma concentration ratio, Small intestine
Experimental: These two groups were further divided into the following three subgroups (n = 4): control rats, CCl4-induced rats, and 5/6 Nx rats. […] The rats were euthanized immediately after blood sampling. The brain, heart, lungs, liver, kidneys, and small intestine were collected. […] Then, 5 µL of the supernatant was analyzed.
MEASUREMENT_KIND: Kp at 4 h
One number for each entry.

# Kp at 4 h lookup, item CC(=O)NC[C@H]1CN(c2ccc(N3CCOCC3)c(F)c2)C(=O)O1 [Linezolid]
1.11

----------
METHOD_SUMMARY: in vivo
CONDITION_DESCRIPTION: Sprague-Dawley, rat, in vivo, iv, 25 mg/kg, AUC0-∞
Method: The control group rats were intraperitoneally injected with equal volumes of soybean oil. […] The upper and lower poles of the left kidney were removed under urethane anesthesia (1 g/kg; administered by i.p. injection). One week later, the right kidney was completely excised. […] Plasma and tissue homogenate samples (100 µL) were mixed with 10 µL of IS (50.0 mg/L) and 200 µL of acetonitrile, followed by vortex-mixing for 3 min. […] Then, 5 µL of the supernatant was analyzed. […]
MEASUREMENT_KIND: AUC(0-inf) (ng·h/mL)
Give bare numbers, in ng·h/mL.

# AUC(0-inf) lookup, item CC(=O)NC[C@H]1CN(c2ccc(N3CCOCC3)c(F)c2)C(=O)O1
69300

----------
METHOD_SUMMARY: Tissue distribution after i.g. or i.v. linezolid in control, CCl4-induced and 5/6 Nx rats
Format: in vivo, rat
CONDITION_DESCRIPTION: rat, small intestine, iv, 25 mg/kg, i.v. 25 mg/kg linezolid; 0.5 h; control rats; read-out: Tissue/plasma concentration ratio, Small intestine
MEASUREMENT_KIND: Kp at 0.5 h

# Kp at 0.5 h lookup, item CC(=O)NC[C@H]1CN(c2ccc(N3CCOCC3)c(F)c2)C(=O)O1
0.42

----------
METHOD_SUMMARY: Tissue distribution after i.g. or i.v. linezolid in control, CCl4-induced and 5/6 Nx rats
Type: in vivo, rat
CONDITION_DESCRIPTION: rat, lung, oral, 63 mg/kg, i.g. 63 mg/kg linezolid; 1 h; CCl4-induced rats; read-out: Tissue/plasma concentration ratio, Lung
MEASUREMENT_KIND: Kp at 1 h
Give bare numbers.

# Kp at 1 h lookup, item CC(=O)NC[C@H]1CN(c2ccc(N3CCOCC3)c(F)c2)C(=O)O1 [Linezolid]
0.66

----------
METHOD_SUMMARY: Tissue distribution after i.g. or i.v. linezolid in control, CCl4-induced and 5/6 Nx rats
Format: in vivo, rat
CONDITION_DESCRIPTION: rat, kidney (homogenate) relative to plasma, iv, 25 mg/kg, i.v. 25 mg/kg linezolid; 4 h; 5/6 Nx rats; read-out: Tissue/plasma concentration ratio, Kidney
Procedure: These two groups were further divided into the following three subgroups (n = 4): control rats, CCl4-induced rats, and 5/6 Nx rats. […] The rats were euthanized immediately after blood sampling. The brain, heart, lungs, liver, kidneys, and small intestine were collected. […] Then, 5 µL of the supernatant was analyzed.
MEASUREMENT_KIND: Kp at 4 h
Numbers only.

# Kp at 4 h lookup, item CC(=O)NC[C@H]1CN(c2ccc(N3CCOCC3)c(F)c2)C(=O)O1 [Linezolid]
1

----------
METHOD_SUMMARY: Tissue distribution after i.g. or i.v. linezolid in control, CCl4-induced and 5/6 Nx rats
Assay type: in vivo, rat
CONDITION_DESCRIPTION: rat, lung, oral, 63 mg/kg, i.g. 63 mg/kg linezolid; 0.5 h; CCl4-induced rats; read-out: Tissue/plasma concentration ratio, Lung
MEASUREMENT_KIND: Kp at 0.5 h
Give bare numbers.

# Kp at 0.5 h lookup, item CC(=O)NC[C@H]1CN(c2ccc(N3CCOCC3)c(F)c2)C(=O)O1 [Linezolid]
0.68

----------
METHOD_SUMMARY: Tissue distribution after i.g. or i.v. linezolid in control, CCl4-induced and 5/6 Nx rats
Assay type: in vivo, rat
CONDITION_DESCRIPTION: rat, kidney, oral, 63 mg/kg, i.g. 63 mg/kg linezolid; 1 h; control rats; read-out: Tissue/plasma concentration ratio, Kidney
MEASUREMENT_KIND: Kp at 1 h
Numbers only.

# Kp at 1 h lookup, item CC(=O)NC[C@H]1CN(c2ccc(N3CCOCC3)c(F)c2)C(=O)O1
0.42

----------
METHOD_SUMMARY: Tissue distribution after i.g. or i.v. linezolid in control, CCl4-induced and 5/6 Nx rats
Type: in vivo, rat
CONDITION_DESCRIPTION: rat, heart, iv, 25 mg/kg, i.v. 25 mg/kg linezolid; 0.5 h; control rats; read-out: Tissue/plasma concentration ratio, Heart
MEASUREMENT_KIND: Kp at 0.5 h
Numbers only.

# Kp at 0.5 h lookup, item CC(=O)NC[C@H]1CN(c2ccc(N3CCOCC3)c(F)c2)C(=O)O1
0.5

----------
METHOD_SUMMARY: Tissue distribution after i.g. or i.v. linezolid in control, CCl4-induced and 5/6 Nx rats
Assay type: in vivo, rat
CONDITION_DESCRIPTION: rat, liver (homogenate) relative to plasma, iv, 25 mg/kg, i.v. 25 mg/kg linezolid; 1 h; 5/6 Nx rats; read-out: Tissue/plasma concentration ratio, Liver
MEASUREMENT_KIND: Kp at 1 h
Give bare numbers.

# Kp at 1 h lookup, item CC(=O)NC[C@H]1CN(c2ccc(N3CCOCC3)c(F)c2)C(=O)O1
1.11

----------
METHOD_SUMMARY: Tissue distribution after i.g. or i.v. linezolid in control, CCl4-induced and 5/6 Nx rats
Assay type: in vivo, rat
CONDITION_DESCRIPTION: rat, small intestine, oral, 63 mg/kg, i.g. 63 mg/kg linezolid; 4 h; 5/6 Nx rats; read-out: Tissue/plasma concentration ratio, Small intestine
MEASUREMENT_KIND: Kp at 4 h
Answers are plain numbers.

# Kp at 4 h lookup, item CC(=O)NC[C@H]1CN(c2ccc(N3CCOCC3)c(F)c2)C(=O)O1
0.9
